assay: MRP1 drug-resistance reversers in H69AR cells – cell-based, doxorubicin co-treatment, pilot screen (AID 601); conditions: H69AR cells, CellTiter-Glo, 72 h; compound alone cytotoxicity; at 10 µM
For each record, write down the corresponding viability.
Give bare numbers, in %.

Look over these answered cases.
>>> value("O=C(NCc1ccccn1)c1ccccc1Cl")
98
>>> value("CCCCNC(=O)c1c(N)n(CCCOC)c2nc3ccccc3nc12")
54

For each of the molecules below, note its viability.
1. CN(C)[C@@H]1C(=O)C(C(N)=O)=C(O)[C@@]2(O)C(=O)C3=C(O)c4c(O)cccc4[C@@](C)(O)[C@H]3[C@H](O)[C@@H]12
2. CCCC(C)C1C(C#N)=C(N)Oc2c1c(=O)oc1ccccc21 (stereo not drawn)
3. CCN1CCN(Cc2cc(Br)cc(OC)c2O)CC1
4. CN1CCN(C(=O)OC2c3nccnc3C(=O)N2c2ccc(Cl)cn2)CC1 (stereo not drawn)
5. Cn1c(=O)cc(SCC(=O)N2CCC3(CC2)OCCO3)c2ccc(Cl)cc21

103
67.7
94.2
94.1
79.1

Look at each molecule and report its viability.
1. CCOP(=S)(OCC)c1ccc(N(C)C)cc1
2. CC1(C)Cc2c(sc3c2C(=O)NC(c2cccnc2)N3)CO1 (stereo not drawn)
3. O=c1[nH]c(=O)n(-c2ccc(F)cc2)c(O)c1C=Nc1ccccc1N1CCCC1
4. Cc1cccc(-n2c(-c3ccco3)nc3ccccc3c2=O)n1
5. CCC(C(=O)N1CCC2(CC1)OCCO2)c1ccccc1 (stereo not drawn)
6. Clc1ccc(COC(Cn2ccnc2)c2ccc(Cl)cc2Cl)c(Cl)c1 (stereo not drawn)
7. c1ccc2c3c([nH]c2c1)CNCC3

78.3
98.5
61.3
87.9
93
31
89.9

Provide viability for all items below, preserving their order.
1. O=C(Cn1ncc2c3ccccc3n(Cc3ccc(F)cc3)c2c1=O)N1CCC2(CC1)OCCO2
2. CNCCc1c[nH]c2ccccc12
3. O=C(COc1ccc2ccccc2c1)N1CCN(C2CCN(Cc3ccccc3)CC2)CC1
4. CC1(C)CC(=O)C=C(NCCN2CCN(C(=O)Cc3ccc(Cl)cc3)CC2)C1
5. NCC1(CC(=O)O)CCCCC1

1. 89.2
2. 84.5
3. 99.8
4. 92.4
5. 96.8

Each molecule below has a recorded value; state its viability.
1. COc1ccc(C2NCc3ccc4c(c3-n3cccc32)OCO4)cc1O (stereo not drawn)
2. C=CCn1c(O)c(C(C)=Nc2ccc(N(CC)CC)cc2)c(=O)[nH]c1=O
3. C#C[C@]1(O)CC[C@H]2[C@@H]3CCC4=CC(=O)CC[C@]4(C)[C@H]3CC[C@@]21C
4. CCCCCCn1c(O)c(C=NC2CCN(Cc3ccccc3)CC2)c(=O)[nH]c1=O

1: 25.5; 2: 16.3; 3: 91.3; 4: 74.8

====

target: Pantothenate synthetase (Mycobacterium tuberculosis (strain ATCC 25618 / H37Rv)) (UniProt P9WIL5); assay: Coupled enzyme confirmation of inhibitors against recombinant Mtb PanC (AID 375); details: coupled enzyme assay; at 10 µM, stronger effect = higher value;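 further: 0% = full reaction with vehicle and 100% = no enzyme background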
Sequence (P9WIL5 whole entry, looked up): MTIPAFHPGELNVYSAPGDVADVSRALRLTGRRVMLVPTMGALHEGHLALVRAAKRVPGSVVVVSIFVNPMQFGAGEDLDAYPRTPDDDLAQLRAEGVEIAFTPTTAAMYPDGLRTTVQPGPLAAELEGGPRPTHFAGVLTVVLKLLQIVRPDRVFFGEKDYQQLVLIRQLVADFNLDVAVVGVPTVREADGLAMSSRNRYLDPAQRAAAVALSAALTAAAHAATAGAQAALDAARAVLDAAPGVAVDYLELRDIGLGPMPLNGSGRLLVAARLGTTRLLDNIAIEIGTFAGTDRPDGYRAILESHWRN
measured-property: inhibition (%)
One number for each entry, in %.

>>> value("COC(=O)c1ccccc1NC(=O)Nc1cccs1")
7

Dear reader, for each entry below, please note its inhibition.
1. COCCn1c(COc2ccc(Cl)cc2)nnc1SCC(N)=O
2. CCOC(=O)c1ccc(Oc2nc(NC)nc(OC)n2)cc1
3. CC1(C)NC(=O)N(CC(O)COc2ccc(-c3ccccc3)cc2)C1=O (stereo not given)
4. O=C(Cn1nc(Cc2ccncc2)c2ccccc2c1=O)N1CCc2ccccc2C1
5. CCOC(=O)Nc1ccc(NS(=O)(=O)c2ccc(C)cc2)cc1

0
0
0
0
0

List inhibition for every entry below, keeping the order given.
1. CCOC(=O)c1ccc(NC(=O)Nc2ccn(C)n2)cc1
2. CCCCOc1ccc(-c2nnn(CC(=O)Nc3ncc(CC(=O)OCC)s3)n2)cc1
3. CN1C(C(=O)Nc2ccccn2)=C(O)c2ccccc2S1(=O)=O
4. O=c1c(F)cn(C2CCCO2)c(=O)n1Cc1c(F)cccc1Cl (stereo not given)

0
2
9
0

// each listed compound needs a value for inhibition
1. CC(=O)Oc1cc(C(C)C)c(OCCN(C)C)cc1C
2. Cc1ccc(NC(=O)CS(=O)CC(=O)NCC2CCCO2)cc1 (stereo not given)

[11, 0]

Provide the reported inhibition of each entry below, same order.
1. Cc1nc2ccc(S(=O)(=O)NC(C(=O)NCc3cccs3)C(C)C)cc2s1 (stereo not given)
2. Cc1nc2c3cnn(-c4ccccc4)c3ncn2n1
3. CC(CC(=O)NC1CCSC1=O)c1ccccc1 (stereo not given)

1. 0
2. 7
3. 0
